experiment: chemical genetic growth profiling, strain panel (AID 1159580);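 further: tested at 20 µM; growth read once vehicle control cultures reached saturation at 30 °C; 1 = growth at the plate median or of vehicle wells; lower values mean less growth of the strain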
testContext: S. cerevisiae deletion strains, growth OD, locus YDR159W, strain sac3, hits give low values
In all, about 5,500 compounds went through this assay and about 2,000 (36%) were called active. Another 18% or so got no clear call; they are omitted. Some of the results follow.

compound: O=C(O)CCCN1C(=O)c2cccc3cccc(c23)C1=O
normalized growth: 1.01
//
compound: C[C@]12C=CC(=O)C=C1CCC1C2C(=O)C[C@@]2(C)C1CC[C@]2(O)C(=O)CO (stereo partly specified)
normalized growth: 1.01
//
compound: O=C1c2ccccc2C(=O)c2c(O)c(O)cc(O)c21
normalized growth: 0.475
//
compound: Nc1ncnc2c1ncn2[C@@H]1O[C@H](CO)[C@@H](O)[C@@H]1O
normalized growth: 1.01
//
compound: O=C1OC(=O)C2C3CCC(O3)C12 (stereo unspecified)
normalized growth: 0.98
//
compound: O=C1c2ccccc2C(=O)c2c1ccc(O)c2O
normalized growth: 0.722
//
compound: CCCCCN=C(N)N/N=C\c1c[nH]c2ccc(OC)cc12
normalized growth: 0.965
//
compound: Nc1ncnc2nc[nH]c12
normalized growth: 1
//
compound: COc1ccc2[nH]cc(CCNC(C)=O)c2c1
normalized growth: 0.943
//
compound: Cc1cc(O)c2c(c1O)C(=O)c1c(O)cc(C)c(O)c1C2=O
normalized growth: 0.973
//
compound: OC[C@@H](O)C(O[C@@H]1O[C@H](CO)[C@H](O)[C@H](O)[C@H]1O)[C@H](O)[C@@H](O)CO (stereo partly specified)
normalized growth: 0.982
//
compound: Cn1c([N+](=O)[O-])cnc1COC(N)=O
normalized growth: 0.983
//
compound: CNC(=O)CSP(=S)(OC)OC
normalized growth: 1.02
//
compound: CC(=O)N[C@@H](CC(=O)O)C(=O)O
normalized growth: 0.969
//
compound: c1coc(CNc2ncnc3nc[nH]c23)c1
normalized growth: 0.974
//
compound: O=C1c2ccc(O)c(O)c2C(=O)c2c(O)ccc(O)c21
normalized growth: 0.789
//
compound: O=C1c2ccccc2-c2cccc3cccc1c23
normalized growth: 0.881
//
compound: N#C/C(=C\c1ccc(O)cc1)C(=O)O
normalized growth: 1.01
//
compound: O=c1ccc2ccc(O)c(O)c2o1
normalized growth: 0.966
//
compound: CCOc1nc2cccc(C(=O)OC(C)OC(=O)OC3CCCCC3)c2n1Cc1ccc(-c2ccccc2-c2nn[nH]n2)cc1 (stereo unspecified)
normalized growth: 1
//
compound: Cn1cnc([N+](=O)[O-])c1Sc1ncnc2nc[nH]c12
normalized growth: 1

* * *

experiment: chemical genetic growth profiling, strain panel (AID 1159580)
testContext: S. cerevisiae deletion strains, growth OD, locus YGL086W, strain mad1, hits give low values
About 2,000 (36%) of roughly 5,500 compounds were called active. Not shown: some 18% with an inconclusive outcome. The list shows a part of the results.

compound: CCOc1nc2cccc(C(=O)OC(C)OC(=O)OC3CCCCC3)c2n1Cc1ccc(-c2ccccc2-c2nn[nH]n2)cc1 (stereo not given)
normalized growth: 0.997
--
compound: CCOc1ccc(Cc2nccc3cc(OCC)c(OCC)cc23)cc1OCC
normalized growth: 0.962
--
compound: CCCc1nc(C(C)(C)O)c(C(=O)OCc2oc(=O)oc2C)n1Cc1ccc(-c2ccccc2-c2nn[nH]n2)cc1
normalized growth: 0.986
--
compound: CC1(C)S[C@@H]2[C@H](NC(=O)COc3ccccc3)C(=O)N2[C@H]1C(=O)O
normalized growth: 1.01
--
compound: COc1ccc(Cc2nccc3cc(OC)c(OC)cc23)cc1OC
normalized growth: 0.994

* * *

experiment: chemical genetic growth profiling, strain panel (AID 1159580)
testContext: S. cerevisiae deletion strains, growth OD, locus YMR231W, strain pep5, hits give low values
The campaign covered roughly 5,500 compounds. About 2,000 (36%) were called active. Roughly 18% stayed inconclusive and do not appear here. The list shows a part of the results.
// reported normalized growth per item

molecule: COC(=O)C[C@H]1C(C)(C)[C@@H](OC(C)=O)[C@@H]2CC3C4CC(=O)O[C@@H](c5ccoc5)[C@]4(C)CCC3[C@@]1(C)C2=O (stereo not given in full)
normalized growth: 1.01

molecule: C[C@]12CCC3C(CC[C@H]4CC(=O)CC[C@]34C)C1CCC2=O (stereo not given in full)
normalized growth: 0.99

molecule: C[N+]1(C)C2CC[C@H]1CC(OC(=O)C(O)c1ccccc1)C2 (stereo not given in full)
normalized growth: 1

molecule: CC(C)CCCC(C)[C@H]1CCC2C3CC[C@H]4CC(=O)CC[C@]4(C)C3CC[C@@]21C (stereo not given in full)
normalized growth: 0.985

molecule: Cn1nnnc1SCC1=C(C(=O)O)N2C(=O)C(NC(=O)C(OC=O)c3ccccc3)C2SC1 (stereo not given)
normalized growth: 0.998

* * *

experiment: chemical genetic growth profiling, strain panel (AID 1159580);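 further: tested at 20 µM; growth read once vehicle control cultures reached saturation at 30 °C; 1 = growth at the plate median or of vehicle wells; lower values mean less growth of the strain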
testContext: S. cerevisiae deletion strains, growth OD, locus YLR342W, strain FKS1 (second series)
About 2,000 (36%) of roughly 5,500 compounds were called active. Roughly 18% stayed inconclusive and do not appear here. Rule as the data show it: active = normalized growth mostly below about 0.91 (no sharp cut-off); inconclusive = no clear call, values can overlap the other calls; inactive = mostly above about 0.92. The list shows a part of the results.
Labels: 1 (active), 0 (inactive)

compound: Cn1nnnc1SCC1=C(C(=O)O)N2C(=O)C(NC(=O)C(OC=O)c3ccccc3)C2SC1 (stereo unspecified)
answerLabel: 0
--
compound: O=C1OC(=O)C2C3CCC(O3)C12 (stereo unspecified)
answerLabel: 0
--
compound: COc1c(O)cc(O)cc1O
answerLabel: 0
--
compound: C[C@]12C=CC(=O)C=C1CCC1C2C(=O)C[C@@]2(C)C1CC[C@]2(O)C(=O)CO (stereo partly specified)
answerLabel: 0
--
compound: Cn1c([N+](=O)[O-])cnc1COC(N)=O
answerLabel: 0
--
compound: COC(=O)C1=CO[C@@H](O[C@@H]2O[C@H](CO)[C@@H](O)[C@H](O)[C@H]2O)[C@@H]2[C@@H](C)[C@@H](O)C[C@H]12
answerLabel: 0
--
compound: COP(=S)(OC)SCn1nnc2ccccc2c1=O
answerLabel: 0
--
compound: CN1CCN(CCCN2c3ccccc3Sc3ccc(Cl)cc32)CC1
answerLabel: 1
--
compound: O=c1n(CCCN2CCN(c3cccc(Cl)c3)CC2)nc2ccccn12
answerLabel: 0
--
compound: COc1ccc2c(=O)c(CC(=O)O)coc2c1
answerLabel: 0
--
compound: CC(=O)OC1CCC23C(=O)OC45CCC(C6=CC(=O)OC6)C4(C)CCC2C5CCC3(O)C1 (stereo unspecified)
answerLabel: 0
--
compound: CSCCC(NC=O)C(=O)NC(CC(C)C)C(=O)NC(Cc1ccccc1)C(=O)O (stereo unspecified)
answerLabel: 0
--
compound: Cn1cnc([N+](=O)[O-])c1Sc1ncnc2nc[nH]c12
answerLabel: 0
--
compound: C[C@]12C=CC(=O)C=C1CCC1C2CC[C@]2(C)C(=O)CCC12 (stereo partly specified)
answerLabel: 0
--
compound: CC(=O)OCC(=O)[C@@]1(O)CCC2C3CCC4=CC(=O)CC[C@]4(C)[C@@]3(F)[C@@H](O)C[C@@]21C (stereo partly specified)
answerLabel: 0
--
compound: C[C@]12CCC3C(CC[C@H]4CC(=O)CC[C@]34C)C1CCC2=O (stereo partly specified)
answerLabel: 1

* * *

experiment: chemical genetic growth profiling, strain panel (AID 1159580);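 further: tested at 20 µM; growth read once vehicle control cultures reached saturation at 30 °C; 1 = growth at the plate median or of vehicle wells; lower values mean less growth of the strain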
testContext: S. cerevisiae deletion strains, growth OD, locus YDR162C, strain NBP2, hits give low values
The whole screen tested about 5,500 compounds, of which about 2,000 (36%) were called active. About 18% were inconclusive and are not listed. The list shows a part of the results.
Our labelling divides records by normalized growth into ranges: bottom (below 0.9), middle (0.9 to below 1), top (1 or more)

compound: O=c1[nH]cnc2nc[nH]c12
answerLabel: top
--
compound: C[C@]12CCC3C(CC[C@H]4C[C@@H](O)CC[C@]34C)C1CCC2=O (some centres not stated)
answerLabel: bottom
--
compound: COc1c2occc2cc2ccc(=O)oc12
answerLabel: middle
--
compound: Nc1ncnc2nc[nH]c12
answerLabel: middle
--
compound: O=C1c2ccc(O)c(O)c2C(=O)c2c(O)ccc(O)c21
answerLabel: top

* * *

experiment: chemical genetic growth profiling, strain panel (AID 1159580);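 further: tested at 20 µM; growth read once vehicle control cultures reached saturation at 30 °C; 1 = growth at the plate median or of vehicle wells; lower values mean less growth of the strain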
testContext: S. cerevisiae deletion strains, growth OD, locus YHR205W, strain SCH9, hits give low values
Among all 5,500 compounds or so, about 2,000 (36%) were called active. Roughly 18% stayed inconclusive and do not appear here. Some of the results follow.
// reported normalized growth per item

molecule: CC(NC(=S)Nc1ccc(Oc2ccc(Cl)cc2)cc1)c1ccccc1 (stereo not given)
normalized growth: 0.954
//
molecule: CC(Oc1ccc(Cl)cc1Cl)C(=O)NNC(=S)Nc1ccccc1 (stereo not given)
normalized growth: 0.906
//
molecule: N#CC(C#N)=NNc1ccc(C(F)(F)F)cc1
normalized growth: 0.0194
//
molecule: O=C1CSC(=Nc2cc(Cl)cc(Cl)c2)N1Cc1cccnc1
normalized growth: 0.958
//
molecule: Oc1ccc(-n2nnnc2SCc2ccc(OC(F)(F)F)cc2)cc1
normalized growth: 0.867
//
molecule: CN(NC(=S)Nc1cc(Cl)ccc1Cl)c1ccc(C(F)(F)F)cc1[N+](=O)[O-]
normalized growth: 0.886
//
molecule: O=C(Nc1ccc(Cl)cc1)c1csc([N+](=O)[O-])c1
normalized growth: 0.786
//
molecule: FC(F)(F)c1ccc(NC(=S)Nc2ccc(C(F)(F)F)cc2Cl)c(Cl)c1
normalized growth: 0.919
//
molecule: Cc1ccc(C(=O)Nc2ccc3ccccc3n2)cc1
normalized growth: 0.954
//
molecule: COc1cccc(C(=O)C(C#N)=C(SC)SC)c1
normalized growth: 0.321
//
molecule: Cc1nc(C(F)(F)F)ccc1C(=O)Sc1nnc(-c2ccc(C(F)(F)F)nc2C)o1
normalized growth: 0.732
//
molecule: CCCCCc1ccc(-c2nc(SCC(C)=O)n[nH]2)cc1
normalized growth: 0.799
//
molecule: C(=NC(N=Cc1ccccc1)c1ccccc1)c1ccccc1 (stereo not given)
normalized growth: 0.894
//
molecule: CSC(SC)=C(C#N)C(=O)c1ccccc1Cl
normalized growth: 0.0151
//
molecule: Nc1ccccc1C(=O)N/N=C\c1cc(Cl)cc(Cl)c1O
normalized growth: 0.564
